Test system: S. aureus strain RN4220
Procedure Summary: MIC determination, wildtype strain RN4220 (96-well dilution series, Mueller-Hinton broth)
Format: cell-based, Staphylococcus aureus
Measurement Setup: Staphylococcus aureus, RN4220; Table 1; 37° C. overnight; read-out: MIC of wildtype RN4220
Description: The majority of mutants were obtained by selection of the S. aureus strain RN4220 on agar plates in presence of an antibiotic. Briefly, the minimal inhibitory concentration (“MIC”) of the wildtype strain RN4220 was determined. […] The lowest antibiotic concentration where no growth of bacteria could be determined is defined as the MIC value of this strain.
Quantity Measured: MIC (mg/L)
# value in mg/L; strip the unit string

- Compound: "CN[C@H](CC(C)C)C(=O)N[C@H]1C(=O)N[C@@H](CC(N)=O)C(=O)N[C@H]2C(=O)N[C@H]3C(=O)N[C@H](C(=O)N[C@H](C(=O)O)c4cc(O)cc(O)c4-c4cc3ccc4O)[C@H](O)c3ccc(c(Cl)c3)Oc3cc2cc(c3O[C@@H]2O[C@H](CO)[C@@H](O)[C@H](O)[C@H]2O[C@H]2C[C@](C)(N)[C@H](O)[C@H](C)O2)Oc2ccc(cc2Cl)[C@H]1O [Vancomycin]"
  Quantity Measured: "MIC"
  Observed Value: 1.56
- Compound: "CO[C@H]1/C=C/O[C@@]2(C)Oc3c(C)c(O)c4c(O)c(c(/C=N/N5CCN(C)CC5)c(O)c4c3C2=O)NC(=O)/C(C)=C\\C=C\\[C@H](C)[C@H](O)[C@@H](C)[C@@H](O)[C@@H](C)[C@H](OC(C)=O)[C@@H]1C [Rifampicin]"
  Quantity Measured: "MIC"
  Observed Value: 0.008

Query block: # get_value(readout= MIC, system= S. aureus strain RN4220) for CC1COc2c(N3CCN(C)CC3)c(F)cc3c(=O)c(C(=O)O)cn1c23 (stereo not drawn) [Ofloxacin]
Result block: 0.4

---

Each entry below lists one item and its recorded MIC value.
System: S. aureus strain RN4220
Procedure Summary: MIC determination, wildtype strain RN4220 (96-well dilution series, Mueller-Hinton broth)
Type: cell-based, Staphylococcus aureus
Measurement Setup: Staphylococcus aureus, RN4220; Table 1; 37° C. overnight; read-out: MIC of wildtype RN4220
# value in µg/mL; strip the unit string

- Compound: "CC1(C)S[C@@H]2[C@H](NC(=O)[C@H](N)c3ccccc3)C(=O)N2[C@H]1C(=O)O [Ampicillin]"
  Quantity Measured: "MIC"
  Observed Value: 0.2
- Compound: "[H]/N=C(/N)N[C@H]1[C@H](O)[C@@H](O)[C@H](O[C@@H]2O[C@@H](C)[C@](O)(C=O)[C@H]2O[C@@H]2O[C@@H](CO)[C@H](O)[C@@H](O)[C@@H]2NC)[C@@H](N/C(N)=N\\[H])[C@@H]1O [Streptomycin]"
  Quantity Measured: "MIC"
  Observed Value: 25

Please turn your attention to the following entry.
Query block: Look at this compound and give its reported MIC. CO[C@@H]1[C@@H](OC(N)=O)[C@@H](O)[C@H](Oc2ccc3c(O)c(NC(=O)c4ccc(O)c(CC=C(C)C)c4)c(=O)oc3c2C)OC1(C)C [Novobiocin]
Result block: 0.05
